These entries and their values trace back to patent US20240252677A1.

- assayDetails: Dimensions (size, PDI) of DNPs co-assembled from IAJDs and Luc-mRNA by DLS
- Assay type: physicochemical
- conditionLabel: Table 12; DNPs, IAJD 4 mg/mL + Luc-mRNA 0.10 mg/mL, acetate buffer 10 mM pH 4.0
readoutName: Size (d, nm)
A complete answer gives the number followed by the unit.

Worked cases, answers included:
compound	Size (d, nm)
CCCCCCCCCCCCCCOc1cc(CNC(=O)CCCN2CCN(C)CC2)cc(OCCCCCCCCCCCCCC)c1 [IAJD 108]	214 nm
CCCCC(CC)COc1ccc(COC(=O)CCCN2CCN(C)CC2)cc1OCC(CC)CCCC (centres unmarked) [IAJD 103]	88 nm
CCCCCCCCOc1cc(COC(=O)CCCN2CCN(CCO)CC2)cc(OCCCCCCCC)c1 [IAJD 89]	149 nm

Q: Given the compound CCCCCCCCCOc1cc(COC(=O)CCCN2CCN(C)CC2)cc(OCCCCCCCCC)c1 [IAJD 77] , what is its reported Size (d, nm)?
Result: 110 nm

Q: How about CCCCCCCCCCCCOc1cc(COC(=O)CCCN2CCN(C)CC2)cc(OCCCCCCCCCCCC)c1OCCCCCCCCCCCC [IAJD 79] ?
Result: 352 nm

Q: Moving on to CCCCCCCCOc1cc(COC(=O)CCCN2CCN(C)CC2)cc(OCCCCCCCC)c1 [IAJD 88]
Result: 100 nm

Q: Moving on to CCCCCCCCCCCCOc1cc(COC(=O)CCCN2CCN(CCO)CC2)cc(OCCCCCCCCCCCC)c1 [IAJD 71]
Result: 237 nm

Q: Also CCCCCCCCCCCCCCCCCCOc1cc(COC(=O)CCCN2CCN(C)CC2)cc(OCCCCCCCCCCC)c1 [IAJD 81] ?
Result: 111 nm

###

- assayDetails: Dimensions (size, PDI) of DNPs co-assembled from IAJDs and Luc-mRNA by DLS
- Type: physicochemical
- conditionLabel: Table 17; DNPs used in vivo, IAJD 4 mg/mL, Luc-mRNA 0.10 mg/mL, acetate pH 4.0
Recorded Size (d, nm) for the following molecules
Please state the figure in nm; there is no need to write the unit.

// known answers, use as guide
molecule	measureUnit	Size (d, nm)
CCCCCCCCCCCCCCCCCOc1cc(CNC(=O)c2cc(OCCOCCOCCOC(=O)CCCN3CCCCC3)c(OCCCOCOCCOCc3ccccc3)c(OCCOCCOCCOC(=O)CCCN3CCCCC3)c2)cc(OCCCCCCCCCCCCCCCCC)c1	nm	91
CCCCCCCCCCCCCCCCCCOc1cc(COC(=O)CCCN2CCN(C)CC2)cc(OCCCCCCCCCCC)c1	nm	111
CCCCCCCCCCCCCCCCCCOc1cc(COC(=O)CCCN2CCN(C)CC2)cc(OCCCCCCCCCCCC)c1	nm	146

Q: // query Size (d, nm) value for entry CCCCCCCCCCCOc1cc(COC(=O)CCCN2CCN(CCO)CC2)cc(OCC(CC)CCCC)c1 (stereo not drawn)
Result: 172

Q: Would you mind doing CCCCCCCCCCCCCCOc1cc(CNC(=O)CCCN2CCN(C)CC2)cc(OCCCCCCCCCCC)c1 as well?
Result: 228

Q: Okay, and CCCCCCCCCCCCCCCOc1cc(COC(=O)CCCN2CCN(C)CC2)cc(OCCCCCCCCCCC)c1 ?
Result: 104

Q: Let us now turn to CCCCCCCCCCCCCCCOc1cc(COC(=O)CCCN2CCN(CCO)CC2)cc(OCCCCCCCC)c1
Result: 99

Q: # iterate: CCCCCCCCCCCCCOc1cc(COC(=O)CCCN2CCN(C)CC2)cc(OCCCCCCCCCCC)c1
Result: 150

Q: Proceed to CCCCCCCCCCCCCCCOc1cc(COC(=O)CCCN2CCN(CCO)CC2)cc(OCCCCCCCCCC)c1
Result: 230

Q: And the next one, CCCCCCCCCCCCCCCOc1cc(COC(=O)CCCN2CCN(CCO)CC2)cc(OCCCCCCCCCCCCCC)c1 ?
Result: 363
